experimental target: purified recombinant human Aggrecanase-1 (rAgg1) (Homo sapiens)
test description: In vitro fluorescence screen for Aggrecanase-1 inhibitors
Type: biochemical
particulars: Table 3; read-out: Agg1 IC50
Quick reference: IC50 of the listed items.

Previously resolved entries follow.
For CC(C)(Cc1ccc(Cl)cc1)NC(=O)[C@H](CCC(=O)O)NC(=O)c1ccc(-c2ccc(F)cc2)s1 , write its IC50.
< 30 nM

For CC(C)(Cc1ccc(F)cc1)NC(=O)[C@H](CCC(=O)O)NC(=O)c1ccc(-c2ccc(Br)s2)cc1 [Example 8WWWWWW] , write its IC50.
< 3 nM

For Cc1ccc(-c2ccc(C(=O)N[C@@H](CCC(=O)O)C(=O)NC(C)(C)Cc3ccc(F)cc3)cc2)s1 [Example 8VVVVVVV] , write its IC50.
< 30 nM

For CC(C)(Cc1ccc(F)cc1)NC(=O)[C@H](CCC(=O)O)NC(=O)c1ccc(-c2ccccc2)cc1F , write its IC50.
< 30 nM

For CC(C)(Cc1ccc(Cl)cc1)NC(=O)[C@H](CCC(=O)O)NC(=O)c1ccc(-c2cccs2)cc1 [Example 8XXXXXXX] , write its IC50.
< 30 nM

More entries:
For CC(C)(Cc1ccccc1)NC(=O)[C@H](CCC(=O)O)NC(=O)c1ccc(-c2cccs2)cc1 , write its IC50.
< 30 nM

----------
experimental target: purified recombinant human Aggrecanase-1 (rAgg1) (Homo sapiens, UniProt O75173)
Sequence (O75173 213-837): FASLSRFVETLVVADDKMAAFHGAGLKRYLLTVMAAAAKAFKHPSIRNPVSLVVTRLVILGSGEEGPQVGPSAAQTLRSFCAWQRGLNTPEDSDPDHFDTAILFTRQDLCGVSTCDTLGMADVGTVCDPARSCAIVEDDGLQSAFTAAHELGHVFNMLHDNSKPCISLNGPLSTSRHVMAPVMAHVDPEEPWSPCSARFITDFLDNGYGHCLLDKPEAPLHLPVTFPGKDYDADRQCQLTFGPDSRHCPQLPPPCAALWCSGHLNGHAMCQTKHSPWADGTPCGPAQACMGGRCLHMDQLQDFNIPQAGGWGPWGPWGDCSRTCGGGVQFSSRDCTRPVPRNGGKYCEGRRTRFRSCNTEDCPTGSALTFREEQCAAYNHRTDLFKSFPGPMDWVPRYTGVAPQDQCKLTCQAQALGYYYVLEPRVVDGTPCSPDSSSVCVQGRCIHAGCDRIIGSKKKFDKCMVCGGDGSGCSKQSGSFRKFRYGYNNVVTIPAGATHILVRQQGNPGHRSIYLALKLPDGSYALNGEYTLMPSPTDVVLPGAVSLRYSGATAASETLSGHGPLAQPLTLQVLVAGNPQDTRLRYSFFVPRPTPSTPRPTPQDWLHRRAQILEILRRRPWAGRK
test description: In vitro fluorescence screen for Aggrecanase-1 inhibitors
Assay type: biochemical
particulars: Table 2; read-out: Agg1 IC50
pIC50: −log10 of the molar value.
endpoint name: pIC50

For COc1ccc(-c2ccc(C(=O)N[C@@H](CCC(=O)O)C(=O)NCc3cc(OC)c(OC)c(OC)c3)cc2)c(OC)c1 [Example 17G] , write its pIC50.
5.80

For Cc1ccc(-c2ccc(C(=O)N[C@@H](CCC(=O)O)C(=O)NC(C)(C)Cc3ccccc3)cc2)cc1 [Example 17TT] , write its pIC50.
6.92

For COc1cc(CNC(=O)[C@H](CCC(=O)O)NC(=O)c2cccc(Oc3ccccc3)c2)cc(OC)c1OC , write its pIC50.
5.08

For O=C(O)CC[C@H](NC(=O)c1ccc(-c2ccc(OCc3cccc(F)c3)cc2)cc1)C(=O)NCc1ccccc1 [Example 15I] , write its pIC50.
6.37

For CC(C)c1cccc(-c2ccc(C(=O)N[C@@H](CCC(=O)O)C(=O)NC(C)(C)Cc3ccc(F)cc3)cc2)c1 [Example 17FF] , write its pIC50.
6.16

For COc1cc(COc2ccc(-c3ccc(C(=O)N[C@@H](CCC(=O)O)C(=O)NCC45CC6CC(CC(C6)C4)C5)cc3)cc2)cc(OC)c1 [Example 19B] , write its pIC50.
5.49

A = CCOc1ccccc1-c1ccc(C(=O)N[C@@H](CCC(=O)O)C(=O)NC(C)(C)Cc2ccccc2)cc1 [Example 17K]
B = CC(C)Cc1ccc(-c2ccc(C(=O)N[C@@H](CCC(=O)O)C(=O)NC(C)(C)Cc3ccc(F)cc3)cc2)cc1 [Example 17HH]
C = O=C(O)CC[C@H](NC(=O)c1ccc2c(c1)Cc1ccccc1-2)C(=O)N[C@H](CO)Cc1ccccc1
Please rank these compounds by pIC50 in descending order. Answer by listing the labels in the order asked for.
C, A, B
(C: 6.33, A: 5.92, B: 5.66)

a = COc1cccc(COc2ccc(-c3ccc(C(=O)N[C@@H](CCC(=O)O)C(=O)NCC45CC6CC(CC(C6)C4)C5)cc3)cc2)c1 [Example 19A]
b = O=C(O)CC[C@H](NC(=O)c1ccc(-c2ccccc2)cc1)C(=O)NC1c2ccccc2-c2ccccc21
Would you kindly point out which of a and b has the smaller pIC50 figure? Indicate your choice by writing its label.
a
(a: 6.03, b: 7.06)

Data origin, for the record: patent US7998965B2
